Assay: Measurement of logP values by HPLC on reversed phase columns (EEC directive 79/831 Annex V.A8)
Assay type: physicochemical
Conditions: pH 2.7
Label Yes when logP >= 2; otherwise No.

> print(dat)
                                   compound  group
1  O=C(NCCCCN1CCCC1=O)c1cc(-c2ncnc(Nc3cccc(Cl)c3)n2)ccn1 [B96]    Yes
2  O=C(c1cc(-c2ccnc(Nc3ccnc(Cl)c3)n2)ccn1)N1CCCC1 [Example A7]    Yes
3  CN(CCC#N)C(=O)c1cc(-c2ncnc(Nc3ccc(Cl)c(C(F)F)c3)n2)ccn1 [Example B389]    Yes
4  C=CCN(CC=C)C(=O)c1cc(-c2ncnc(Nc3cccc(Cl)c3)n2)ccn1 [Example B143]    Yes
5  O=C(NCCN1CCOCC1)c1cc(-c2ncnc(Nc3cccc(Cl)c3)n2)ccn1 [Example B105]     No
6  COCc1cccc(Nc2ncnc(-c3ccnc(C(=O)N(C)CC(C)C)c3)n2)c1 [Example B244]    Yes

---

Assay: Measurement of logP values by HPLC on reversed phase columns (EEC directive 79/831 Annex V.A8)
Format: physicochemical
Settings: pH 2.7
outcome measure: logP

> print(dat)
                                   compound  outcome.measure  obs.value
1  Cc1ccc(Nc2ncnc(-c3ccnc(C(=O)NC(C)C)c3)n2)cc1Cl             logP       4.04
2  CC(=NOC(C1CC1)C1CC1)c1cc(-c2ncnc(Nc3cccc(Cl)c3)n2)ccn1 (mixture of isomers)             logP       5.64
3  C=CCON=C(C)c1cc(-c2ncnc(Nc3cccc(Cl)c3)n2)ccn1 (mixture of isomers)             logP        4.7
4  CC(C)CN(C)C(=O)c1cc(-c2ncnc(Nc3ccncc3)n2)ccn1             logP       1.19
5  CN(CCC#N)C(=O)c1cc(-c2ncnc(Nc3ccccc3)n2)ccn1             logP       2.07
6  CN(CCC#N)C(=O)c1cc(-c2ncnc(Nc3ccsc3)n2)ccn1             logP       1.89
7  Cc1ccc(Nc2ncnc(-c3ccnc(C(=O)NC4CC4)c3)n2)cc1Cl             logP       3.62
8  COCCN(C)C(=O)c1cc(-c2ncnc(Nc3cccc(F)c3)n2)ccn1             logP       2.26

---

Assay: Measurement of logP values by HPLC on reversed phase columns (EEC directive 79/831 Annex V.A8)
Type: physicochemical
Settings: pH 2.7
outcome measure: logP

> print(dat)
                                    compound  obs.value
 1  CCCN(C)C(=O)c1cc(-c2ncnc(Nc3ccccc3)n2)ccn1       2.55
 2  CCCON=C(C)c1cc(-c2ncnc(Nc3cccc(Cl)c3)n2)ccn1 (mixture of isomers)       5.13
 3  O=CNCCCNC(=O)c1cc(-c2ncnc(Nc3cccc(Cl)c3)n2)ccn1       2.26
 4  CC(=NOCC1CC1)c1cc(-c2ncnc(Nc3cccc(Cl)c3)n2)ccn1 (mixture of isomers)       4.94
 5  CCCCCCN(C)C(=O)c1cc(-c2ncnc(Nc3cccc(Cl)c3)n2)ccn1       4.34
 6  COCC(C)NC(=O)c1cc(-c2ncnc(Nc3cccc(Cl)c3)n2)ccn1 (stereo not drawn)       3.21
 7  COCC(C)NC(=O)c1cc(-c2ncnc(Nc3cccc(SC)c3)n2)ccn1 (stereo not drawn)       3.31
 8  CC(C)=CC(=O)O/N=C(/N)c1cc(-c2ncnc(Nc3cccc(Cl)c3)n2)ccn1       3.92
 9  CC(C)N(C)C(=O)c1cc(-c2ncnc(Nc3cccc(C#N)c3)n2)ccn1       2.37
10  COC(=O)c1cc(-c2ncnc(Nc3ccc(OC)c(F)c3)n2)ccn1       2.37
11   NC(=S)c1cc(-c2ncnc(Nc3ccc(F)cc3)n2)ccn1       2.47
12  C#CC(C)ON=C(CC)c1cc(-c2ncnc(Nc3cccc(Cl)c3)n2)ccn1 (mixture of isomers)       4.87
13  CCC(=O)O/N=C(/N)c1cc(-c2ncnc(Nc3cccc(Cl)c3)n2)ccn1       3.33
14  Cc1ccc(Nc2nccc(-c3ccnc(C(=O)N(C)C)c3)n2)s1       2.13
15  CCCN(C)C(=S)c1cc(-c2ncnc(Nc3ccc(F)c(C(F)F)c3)n2)ccn1        3.4
16  COc1ccc(Nc2ncnc(-c3ccnc(C(=O)N(C)CC(C)C)c3)n2)cn1       2.37
17  COCc1cccc(Nc2ncnc(-c3ccnc(C(=O)N(C)C(COC)C4CC4)c3)n2)c1 (stereo not drawn)       2.69
18  CCCN(CC)C(=O)c1cc(-c2ccnc(Nc3ccnc(Cl)c3)n2)ccn1       2.51
